The reported measurements were obtained from ChEMBL document CHEMBL1138851.

Test system: Candida albicans
Assay Remarks: Antifungal activity against Candida albicans ATCC 90028
Format: functional, organism-based
Give MFC for every item shown.
Answers are plain numbers, in µg/mL.

COC(/C=C/c1ccc(OC)cc1)=C1\C(=O)C=C(C)C1=O ... 10
COC(/C=C/c1ccco1)=C1\C(=O)C=C(C)C1=O ... 4.17
COC(/C=C/c1cccs1)=C1\C(=O)C=C(C)C1=O ... 3.33
COC(/C=C/c1ccc(Cl)cc1)=C1\C(=O)C=C(C)C1=O ... 4.17
CCOC(/C=C/c1ccccc1)=C1\C(=O)C=C(C)C1=O ... 20

For each of the items listed, what is its MFC?
1. COC(/C=C/c1ccccc1)=C1\C(=O)C=C(C)C1=O
2. C[C@@H]1[C@H](O)[C@@H](C)/C=C/C=C/C=C/C=C/C=C/C=C/C=C/[C@H](O[C@@H]2O[C@H](C)[C@@H](O)[C@H](N)[C@@H]2O)C[C@@H]2O[C@](O)(C[C@@H](O)C[C@@H](O)[C@H](O)CC[C@@H](O)C[C@@H](O)CC(=O)O[C@H]1C)C[C@H](O)[C@H]2C(=O)O
3. COC(/C=C/c1ccc(O)cc1)=C1\C(=O)C=C(C)C1=O

OUT:
2.08
1.04
10

* * *

Give MFC for every item shown.
System: Aspergillus fumigatus
Assay Remarks: Antifungal activity against Aspergillus fumigatus ATCC 90906
Type: functional, organism-based

CC(=O)OC(/C=C/c1ccccc1)=C1\C(=O)C=C(C)C1=O ... > 20 µg/mL

For each of the items listed, what is its MFC?
1. CO/C(=C1\C(=O)C=C(C)C1=O)c1ccccc1
2. COC(/C=C/c1cccs1)=C1\C(=O)C=C(C)C1=O
3. OC(Cn1cncn1)(Cn1cncn1)c1ccc(F)cc1F [FLUCONAZOLE]
4. COC(/C=C/c1ccccc1)=C1\C(=O)C=C(c2ccccc2)C1=O
5. COC(/C=C/c1ccc(Cl)cc1)=C1\C(=O)C=C(C)C1=O

OUT:
1. > 20 µg/mL
2. > 20 µg/mL
3. > 200 µg/mL
4. > 20 µg/mL
5. > 20 µg/mL

* * *

Tested on: Candida albicans
Assay Remarks: Antifungal activity against fluconazole-susceptible Candida albicans
Assay type: functional, organism-based
Measured Endpoint: MFC

Examples from the recorded data:
CCOC(/C=C/c1ccccc1)=C1\C(=O)C=C(C)C1=O ... 17 µg/mL
COC(/C=C/c1ccccc1)=C1\C(=O)C=C(c2ccccc2)C1=O ... > 20 µg/mL
CC1=CC(=O)/C(=C(O)/C=C/c2ccc(Cl)cc2)C1=O ... > 20 µg/mL
CC(=O)OC(/C=C/c1ccccc1)=C1\C(=O)C=C(C)C1=O ... > 20 µg/mL
COC(/C=C/c1cccs1)=C1\C(=O)C=C(C)C1=O ... 2.5 µg/mL
COC(/C=C/c1ccc(Cl)cc1)=C1\C(=O)C=C(C)C1=O ... 2.92 µg/mL
CO/C(=C1\C(=O)C=C(C)C1=O)c1ccccc1 ... > 20 µg/mL
OC(Cn1cncn1)(Cn1cncn1)c1ccc(F)cc1F ... > 200 µg/mL

For each of the items listed, what is its MFC?
1. COC(/C=C/c1ccccc1)=C1\C(=O)C=C(C)C1=O
2. COC(/C=C/c1ccc(OC)cc1)=C1\C(=O)C=C(C)C1=O
3. COC(/C=C/c1ccco1)=C1\C(=O)C=C(C)C1=O
4. COC(/C=C/c1ccc(O)cc1)=C1\C(=O)C=C(C)C1=O

OUT:
1.25 µg/mL
6.67 µg/mL
2.5 µg/mL
13 µg/mL

* * *

System: Candida albicans
Assay Remarks: Antifungal activity against Candida albicans ATCC 90028
Assay type: functional, organism-based
Consider the reported IC50 of an entry and match it to a band in A: < 1 µg/mL; B: ≥ 1 µg/mL and < 5 µg/mL; C: ≥ 5 µg/mL

OC(Cn1cncn1)(Cn1cncn1)c1ccc(F)cc1F ... A
COC(/C=C/c1ccccc1)=C1\C(=O)C=C(c2ccccc2)C1=O ... C
CC1=CC(=O)/C(=C(O)/C=C/c2ccco2)C1=O ... C
COC(/C=C/c1cccs1)=C1\C(=O)C=C(C)C1=O ... B
C[C@@H]1[C@H](O)[C@@H](C)/C=C/C=C/C=C/C=C/C=C/C=C/C=C/[C@H](O[C@@H]2O[C@H](C)[C@@H](O)[C@H](N)[C@@H]2O)C[C@@H]2O[C@](O)(C[C@@H](O)C[C@@H](O)[C@H](O)CC[C@@H](O)C[C@@H](O)CC(=O)O[C@H]1C)C[C@H](O)[C@H]2C(=O)O ... A

IN: // bin(item) where item = "COC(/C=C/c1ccc(OC)cc1)=C1\C(=O)C=C(C)C1=O"
OUT: B

IN: // bin(item) where item = "COC(/C=C/c1ccc(Cl)cc1)=C1\C(=O)C=C(C)C1=O"
OUT: B

IN: // bin(item) where item = "CCOC(/C=C/c1ccccc1)=C1C(=O)C(C)=C(C)C1=O"
OUT: C

IN: // bin(item) where item = "CC1=C(C)C(=O)C(=C(/C=C/c2ccccc2)OC(=O)c2ccccc2)C1=O"
OUT: C

IN: // bin(item) where item = "CC1=CC(=O)/C(=C(O)/C=C/c2ccccc2)C1=O"
OUT: C

IN: // bin(item) where item = "CC(=O)OC(/C=C/c1ccccc1)=C1\C(=O)C=C(C)C1=O"
OUT: C

IN: // bin(item) where item = "CC1=CC(=O)/C(=C(O)/C=C/c2ccc(Cl)cc2)C1=O"
OUT: C

IN: // bin(item) where item = "COC(/C=C/c1ccccc1)=C1\C(=O)C=C(C)C1=O"
OUT: A

IN: // bin(item) where item = "CO/C(=C1\C(=O)C=C(C)C1=O)c1ccccc1"
OUT: C

IN: // bin(item) where item = "CC1=C(C)C(=O)C(=C(/C=C/c2ccccc2)OC(=O)/C=C/c2ccccc2)C1=O"
OUT: C

IN: // bin(item) where item = "CC1=CC(=O)/C(=C(O)/C=C/c2cccs2)C1=O"
OUT: C

IN: // bin(item) where item = "CC(=O)OC(/C=C/c1ccccc1)=C1C(=O)C(C)=C(C)C1=O"
OUT: C

IN: // bin(item) where item = "COC(/C=C/c1ccco1)=C1\C(=O)C=C(C)C1=O"
OUT: B

* * *

System: Aspergillus fumigatus
Assay Remarks: Antifungal activity against Aspergillus fumigatus ATCC 90906
Type: functional, organism-based
Measured Endpoint: MFC

COC(/C=C/c1ccccc1)=C1\C(=O)C=C(C)C1=O ... > 20 µg/mL
CCOC(/C=C/c1ccccc1)=C1\C(=O)C=C(C)C1=O ... > 20 µg/mL
COC(/C=C/c1ccc(OC)cc1)=C1\C(=O)C=C(C)C1=O ... > 20 µg/mL
COC(/C=C/c1ccco1)=C1\C(=O)C=C(C)C1=O ... 20 µg/mL
COC(/C=C/c1ccc(O)cc1)=C1\C(=O)C=C(C)C1=O ... > 20 µg/mL

Next compound, please.
The compound "CC1=CC(=O)/C(=C(O)/C=C/c2ccc(Cl)cc2)C1=O" showed MFC equal to > 20 µg/mL

* * *

Give MIC for every item shown.
Test system: Candida albicans
Assay Remarks: Antifungal activity against Candida albicans ATCC 90028
Format: functional, organism-based

For each of the items listed, what is its MIC?
1. CO/C(=C1\C(=O)C=C(C)C1=O)c1ccccc1
2. CC1=CC(=O)/C(=C(O)/C=C/c2ccc(Cl)cc2)C1=O
3. COC(/C=C/c1ccccc1)=C1\C(=O)C=C(C)C1=O
4. CCOC(/C=C/c1ccccc1)=C1\C(=O)C=C(C)C1=O
5. COC(/C=C/c1ccc(Cl)cc1)=C1\C(=O)C=C(C)C1=O

OUT:
1. > 20 µg/mL
2. > 20 µg/mL
3. 2.08 µg/mL
4. 20 µg/mL
5. 4.17 µg/mL

For each of the items listed, what is its MIC?
1. COC(/C=C/c1ccc(OC)cc1)=C1\C(=O)C=C(C)C1=O
2. COC(/C=C/c1ccccc1)=C1\C(=O)C=C(c2ccccc2)C1=O
3. C[C@@H]1[C@H](O)[C@@H](C)/C=C/C=C/C=C/C=C/C=C/C=C/C=C/[C@H](O[C@@H]2O[C@H](C)[C@@H](O)[C@H](N)[C@@H]2O)C[C@@H]2O[C@](O)(C[C@@H](O)C[C@@H](O)[C@H](O)CC[C@@H](O)C[C@@H](O)CC(=O)O[C@H]1C)C[C@H](O)[C@H]2C(=O)O
4. COC(/C=C/c1ccco1)=C1\C(=O)C=C(C)C1=O

OUT:
1: 10 µg/mL; 2: > 20 µg/mL; 3: 0.63 µg/mL; 4: 4.17 µg/mL
